Items are presented alongside their recorded inhibition.
protocol: growth inhibition of non-replicating M. tuberculosis (AID 488890);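 further: plate controls were DMSO cells for no effect and high antibiotic wells for full effect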
condition: Mycobacterium tuberculosis non-replicating, at 25 µM, stronger effect = higher value
In all, about 320,000 compounds went through this assay and about 1,300 (0.41%) were called active. Roughly 3% stayed inconclusive and do not appear here. A selection follows. Entries with a potency or affinity are not part of this list.
Don't forget the unit after the value.

>  <chem smiles>
COc1ccc(CCn2c(N3CCN(Cc4ccccc4)CC3)nc3c2c(=O)[nH]c(=O)n3C)cc1

>  <inhibition>
15.1%

$$$$
>  <chem smiles>
COc1cc2[nH]c(=O)n(C3CCCCC3)c(=O)c2cc1OC

>  <inhibition>
6.65%

$$$$
>  <chem smiles>
O=C(O)c1cccc(NS(=O)(=O)/C=C/c2ccccc2)c1

>  <inhibition>
-0.77%

$$$$
>  <chem smiles>
COc1ccccc1CN(C)C(=O)COC(=O)c1ccc(Cl)nc1

>  <inhibition>
73.1%

$$$$

Switching to the query record.
In: Name the reported inhibition value associated with the compound O=C(O)c1ccc(NS(=O)(=O)/C=C/c2ccccc2)cc1
Out: -4.07%
